Hello, the source for this data is ChEMBL document CHEMBL2086304, in case you need it.

test system: Mycobacterium kansasii; assay: Antimycobacterial activity against isoniazid resistance Mycobacterium kansasii 225/80 after 7 days by micromethod; assay type: functional; details: 225/80, 168 h
measure: MIC (µM)
Give bare numbers, in µM.

Take a look at these entries with their results.
- smiles.string: "COc1ccc(Cl)cc1C(=S)Nc1cc(Cl)ccc1O"
  MIC [µM]: 8
- smiles.string: "COc1cc(Cl)ccc1C(=O)Nc1cc(C(F)(F)F)ccc1O"
  MIC [µM]: 250

Provide MIC for all items below, preserving their order.
1. COc1ccc(Cl)cc1C(=O)Nc1cc(Br)ccc1O
2. COc1ccc(Cl)cc1-c1nc2ccc(Br)cc2o1
3. COc1cc(Cl)ccc1-c1nc2cc(Cl)c(Cl)cc2o1
4. COc1ccc(Cl)cc1-c1nc2cc(Cl)c(Cl)cc2o1

# output
1. 4
2. 125
3. 250
4. 125

----------
Target: Isocitrate lyase (Mycobacterium tuberculosis) (UniProt P9WKK7)
Sequence (whole entry): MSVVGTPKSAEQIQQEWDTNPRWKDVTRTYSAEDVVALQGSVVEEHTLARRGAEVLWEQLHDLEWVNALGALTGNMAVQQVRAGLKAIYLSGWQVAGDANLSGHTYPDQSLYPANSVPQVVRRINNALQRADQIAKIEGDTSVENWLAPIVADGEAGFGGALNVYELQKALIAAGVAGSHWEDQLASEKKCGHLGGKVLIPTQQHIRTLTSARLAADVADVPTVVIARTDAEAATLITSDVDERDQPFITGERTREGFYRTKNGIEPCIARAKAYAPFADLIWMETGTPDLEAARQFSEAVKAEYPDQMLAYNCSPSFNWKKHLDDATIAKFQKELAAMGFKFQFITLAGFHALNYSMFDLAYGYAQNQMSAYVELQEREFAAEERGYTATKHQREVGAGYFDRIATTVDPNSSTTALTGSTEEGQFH
Assay: Inhibition of Mycobacterium tuberculosis H37Rv isocitrate lyase expressed in Escherichia coli HB101 at 10 umol/L
For each record, write down the corresponding inhibition.
Answers are plain numbers, in %.

Provide inhibition for all items below, preserving their order.
1. COc1cc(Cl)ccc1C(=S)Nc1cc(Cl)ccc1O
2. COc1cc(Cl)ccc1C(=S)Nc1ccc(Br)cc1O
3. COc1cc(Cl)ccc1C(=S)Nc1cc(C(F)(F)F)ccc1O
4. COc1ccc(Cl)cc1C(=O)Nc1cc(Br)ccc1O
5. COc1ccc(Cl)cc1-c1nc2cc(Cl)ccc2o1

# output
1. 9
2. 10
3. 0
4. 0
5. 0

----------
test system: Mycobacterium avium; assay: Antimycobacterial activity against isoniazid resistance Mycobacterium avium 330/88 after 21 days by micromethod; assay type: functional; details: 330/88, 504 h
For each record, write down the corresponding log10(MIC).
Please be aware that the numbers have been log10-transformed from MIC in µM.

Take a look at these entries with their results.
- smiles.string: "COc1cc(Cl)ccc1C(=O)Nc1ccc(Cl)cc1O"
  log10(MIC): 2.10
- smiles.string: "COc1ccc(Cl)cc1C(=S)Nc1ccc(Br)cc1O"
  log10(MIC): 2.10
- smiles.string: "COc1ccc(Cl)cc1C(=S)Nc1cc(Cl)c(Cl)cc1O"
  log10(MIC): 1.80

Provide log10(MIC) for all items below, preserving their order.
1. COc1cc(Cl)ccc1C(=S)Nc1cc(Br)ccc1O
2. COc1ccc(Cl)cc1C(=O)Nc1ccc(C(F)(F)F)cc1O
3. COc1ccc(Cl)cc1-c1nc2cc(Cl)ccc2o1
4. COc1cc(Cl)ccc1C(=S)Nc1cc(Cl)ccc1O
5. COc1ccc(Cl)cc1C(=S)Nc1cc(Br)ccc1O
6. COc1ccc(Cl)cc1C(=O)Nc1cc(Cl)c(Cl)cc1OC(=O)c1cc(Cl)ccc1OC
7. COc1cc(Cl)ccc1-c1nc2cc(Cl)c(Cl)cc2o1
8. COc1ccc(Cl)cc1-c1nc2cc(Cl)c(Cl)cc2o1

# output
1: 1.80; 2: 1.80; 3: 2.40; 4: 1.51; 5: 1.51; 6: 1.80; 7: 2.70; 8: 2.10

Provide log10(MIC) for all items below, preserving their order.
1. COc1cc(Cl)ccc1C(=S)Nc1cc(C(F)(F)F)ccc1O
2. COc1cc(Cl)ccc1C(=O)Nc1cc(Br)ccc1O
3. COc1cc(Cl)ccc1-c1nc2ccc(Br)cc2o1
4. COc1cc(Cl)ccc1C(=O)Nc1ccc(Cl)cc1OC(=O)c1ccc(Cl)cc1OC
5. COc1ccc(Cl)cc1C(=O)Nc1cc(Cl)ccc1O
6. COc1ccc(Cl)cc1C(=O)Nc1ccc(Br)cc1O

# output
1: 1.80; 2: 1.80; 3: 2.10; 4: 1.80; 5: 2.10; 6: 2.70

# input // log10(MIC) lookup, key: COc1cc(Cl)ccc1C(=S)Nc1ccc(Cl)cc1O
# output 1.51

----------
test system: Mycobacterium kansasii; experiment: Antimycobacterial activity against isoniazid resistance Mycobacterium kansasii 225/80 after 7 days by micromethod; format: functional; conditions: 225/80, 168 h
measure: MIC (µM)
Numbers only, in µM.

Take a look at these entries with their results.
- smiles.string: "COc1cc(Cl)ccc1C(=S)Nc1cc(Cl)c(Cl)cc1O"
  unit.of.measurement: "µM"
  MIC: 16
- smiles.string: "COc1ccc(Cl)cc1C(=S)Nc1ccc(Br)cc1O"
  unit.of.measurement: "µM"
  MIC: 16

Provide MIC for all items below, preserving their order.
1. COc1ccc(Cl)cc1C(=O)Nc1cc(C(F)(F)F)ccc1O
2. COc1ccc(Cl)cc1C(=S)Nc1cc(Cl)c(Cl)cc1O
3. COc1cc(Cl)ccc1-c1nc2ccc(Br)cc2o1
4. COc1cc(Cl)ccc1C(=S)Nc1cc(C(F)(F)F)ccc1O

# output
1: 32; 2: 32; 3: 125; 4: 32

Provide MIC for all items below, preserving their order.
1. COc1cc(Cl)ccc1C(=O)Nc1cc(Cl)ccc1O
2. COc1ccc(Cl)cc1C(=O)Nc1ccc(Cl)cc1O
3. COc1ccc(Cl)cc1C(=S)Nc1cc(Br)ccc1O
4. COc1ccc(Cl)cc1C(=S)Nc1cc(C(F)(F)F)ccc1O
5. COc1cc(Cl)ccc1C(=O)Nc1ccc(Cl)cc1OC(=O)c1ccc(Cl)cc1OC
6. COc1ccc(Cl)cc1-c1nc2ccc(C(F)(F)F)cc2o1

# output
125
16
8
32
16
250

----------
tested on: Mycobacterium avium; assay: Antimycobacterial activity against isoniazid resistance Mycobacterium avium 330/88 after 21 days by micromethod; format: functional; conditions: 330/88, 504 h
For each record, write down the corresponding MIC.

Take a look at these entries with their results.
- smiles.string: "COc1ccc(Cl)cc1C(=S)Nc1ccc(C(F)(F)F)cc1O"
  MIC: "62.5 µM"
- smiles.string: "COc1ccc(Cl)cc1C(=O)Nc1cc(Br)ccc1O"
  MIC: "62.5 µM"
- smiles.string: "COc1ccc(Cl)cc1C(=O)Nc1cc(C(F)(F)F)ccc1O"
  MIC: "125 µM"
- smiles.string: "NNC(=O)c1ccncc1"
  MIC: "> 250 µM"
- smiles.string: "COc1ccc(Cl)cc1C(=S)Nc1cc(Cl)ccc1O"
  MIC: "32 µM"

Provide MIC for all items below, preserving their order.
1. COc1cc(Cl)ccc1C(=O)Nc1ccc(Br)cc1O
2. COc1ccc(Cl)cc1C(=S)Nc1ccc(Cl)cc1O
3. COc1cc(Cl)ccc1C(=O)Nc1ccc(C(F)(F)F)cc1O
4. COc1ccc(Cl)cc1-c1nc2ccc(Br)cc2o1
5. COc1ccc(Cl)cc1C(=O)Nc1ccc(C(F)(F)F)cc1OC(=O)c1cc(Cl)ccc1OC

# output
["125 µM", "62.5 µM", "62.5 µM", "125 µM", "62.5 µM"]

Provide MIC for all items below, preserving their order.
1. COc1cc(Cl)ccc1-c1nc2cc(Br)ccc2o1
2. COc1cc(Cl)ccc1C(=O)Nc1cc(Cl)ccc1O
3. COc1cc(Cl)ccc1C(=S)Nc1cc(Cl)c(Cl)cc1O
4. COc1cc(Cl)ccc1-c1nc2ccc(C(F)(F)F)cc2o1
5. COc1cc(Cl)ccc1C(=S)Nc1ccc(Br)cc1O
6. COc1ccc(Cl)cc1C(=O)Nc1cc(Cl)c(Cl)cc1O
7. COc1cc(Cl)ccc1C(=O)Nc1cc(C(F)(F)F)ccc1O

# output
1. 250 µM
2. 125 µM
3. 62.5 µM
4. 125 µM
5. 32 µM
6. 125 µM
7. 250 µM

Provide MIC for all items below, preserving their order.
1. COc1ccc(Cl)cc1-c1nc2cc(Br)ccc2o1
2. COc1cc(Cl)ccc1C(=O)Nc1cc(Cl)c(Cl)cc1O
3. COc1cc(Cl)ccc1C(=O)Nc1ccc(C(F)(F)F)cc1OC(=O)c1ccc(Cl)cc1OC
4. COc1ccc(Cl)cc1-c1nc2ccc(C(F)(F)F)cc2o1
5. COc1cc(Cl)ccc1C(=S)Nc1ccc(C(F)(F)F)cc1O
6. COc1ccc(Cl)cc1C(=S)Nc1cc(C(F)(F)F)ccc1O
7. COc1ccc(Cl)cc1C(=O)Nc1ccc(Cl)cc1O

# output
1: 250 µM; 2: > 1000 µM; 3: 62.5 µM; 4: 250 µM; 5: 62.5 µM; 6: 62.5 µM; 7: 250 µM

# input // MIC lookup, key: COc1cc(Cl)ccc1-c1nc2ccc(Cl)cc2o1
# output 62.5 µM
